- TARGET_OR_TEST_SYSTEM: ERα (Homo sapiens, UniProt P03372)
- Construct: host or cells: MCF7
- Sequence (P03372 1-595): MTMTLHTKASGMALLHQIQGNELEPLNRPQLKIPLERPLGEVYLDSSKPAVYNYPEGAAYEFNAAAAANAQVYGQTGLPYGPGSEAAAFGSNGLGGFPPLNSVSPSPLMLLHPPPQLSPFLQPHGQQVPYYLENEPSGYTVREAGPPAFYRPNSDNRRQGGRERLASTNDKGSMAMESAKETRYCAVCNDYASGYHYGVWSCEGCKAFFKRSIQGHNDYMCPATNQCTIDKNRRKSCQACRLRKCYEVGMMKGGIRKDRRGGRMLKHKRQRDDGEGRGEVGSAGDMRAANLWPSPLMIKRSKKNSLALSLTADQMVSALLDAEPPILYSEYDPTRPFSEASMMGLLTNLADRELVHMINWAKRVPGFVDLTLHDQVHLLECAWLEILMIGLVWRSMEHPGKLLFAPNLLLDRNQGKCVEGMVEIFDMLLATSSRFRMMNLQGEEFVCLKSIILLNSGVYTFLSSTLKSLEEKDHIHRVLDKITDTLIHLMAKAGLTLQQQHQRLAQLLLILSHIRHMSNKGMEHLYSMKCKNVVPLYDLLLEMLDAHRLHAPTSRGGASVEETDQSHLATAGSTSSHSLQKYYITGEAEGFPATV
- PROCEDURE_SUMMARY: Estrogen receptor degradation activity: breast cancer cell ERα in cell western assay (MCF7 cells)
- Assay type: cell-based
- CONDITIONS_USED: 4 hours, % of ERα levels decrease relative to fulvestrant (0.1 μM) and DMSO
- Experimental: Test: Estrogen Receptor Degradation Activity Said test involves measuring the in vitro degradation activity of the compounds of the Table 1a. […] MCF7 cells (ATCC) were seeded in 384 wells microplate (collagen coated) at a concentration of 10000 cells/30 μL per well in red phenol free MEM alpha medium (invitrogen) containing 5% charcoal dextran striped FBS. […] Integrated intensities in the green fluorescence and red fluorescence were measured to determine the levels of ERα and DNA respectively. […]
READOUT_NAME: % Degradation At 0.3 μM (%)
Reply with just the number (in %).

{"COMPOUND": "Cc1cccc(C2=C(c3ccc(/C=C4/CCN(CCC(F)F)C4)cc3)c3ccc(C(=O)O)cc3CCC2)c1C(F)(F)F [Compound 12]", "ASSAY_RESULT": 85}

Noted % Degradation At 0.3 μM for Cc1cc(C2=C(c3ccc(/C=C4/CCN(CCCF)C4)cc3)c3ccc(C(=O)O)cc3CCC2)c(C)cc1F [Compound 29] , tested on ERα (Homo sapiens, UniProt P03372): 92

Noted % Degradation At 0.3 μM for O=C(O)c1ccc2c(c1)CCCC(c1ccc(F)cc1C(F)(F)F)=C2c1ccc(/C=C2/CCN(CCCF)C2)cc1 [Compound 8] , tested on ERα (Homo sapiens, UniProt P03372): 90

Noted % Degradation At 0.3 μM for Cc1c(C2=C(c3ccc(/C=C4/CCN(CCC(F)F)C4)cc3)c3ccc(C(=O)O)cc3CCC2)cccc1C(F)(F)F [Compound 19] , tested on ERα (Homo sapiens, UniProt P03372): 87

Noted % Degradation At 0.3 μM for O=C(O)c1ccc2c(c1)CCCC(c1ccc(Cl)cc1Cl)=C2c1ccc(C=C2CCN(CCC(F)F)C2)cc1 [Compound 4] , tested on ERα (Homo sapiens, UniProt P03372): 73

Noted % Degradation At 0.3 μM for Cl.Oc1ccc2c(c1)CCCC(c1ccc(Cl)cc1Cl)=C2c1ccc(/C=C2/CCN(CCCF)C2)cc1 [Compound 16] , tested on ERα (Homo sapiens, UniProt P03372): 76

Noted % Degradation At 0.3 μM for Cc1c(Cl)cccc1C1=C(c2ccc(/C=C3/CCN(CCCF)C3)cc2)c2ccc(C(=O)O)cc2CCC1 [Compound 10] , tested on ERα (Homo sapiens, UniProt P03372): 92
